system: HOP-92 NSCLC; assay: NCI tumour cell line growth inhibition, 48 h
QUANTITY: TGI

INSERT INTO measurements (molecule, quantity, recorded_measurement) VALUES
  ('CN(C)C(=S)/N=c1\ssc(=S)n1Cc1cccnc1', 'TGI', '> 100 µM'),
  ('CCCCc1ccc(Nc2nc(SC)c3[nH]cnc3n2)cc1', 'TGI', '> 100 µM'),
  ('Cc1ccc(N(C(=O)Nc2ccccc2)C2=NCC(C)S2)cc1C (stereo not given)', 'TGI', '43.3 µM'),
  ('Cn1c2ccc3cc2c(=S)c2cc(ccc21)OCCOCCOCCOCCOCCO3', 'TGI', '> 10 µM'),
  ('COc1cc(-c2cc(-c3ccccc3)nc(-c3c(OC)ccc4c(C)cc(=O)oc34)c2)cc(OC)c1OC', 'TGI', '> 100 µM'),
  ('Cc1ccc(NC2=CC(=O)C(NO)c3ccccc32)cc1 (stereo not given)', 'TGI', '8.25 µM'),
  ('CCSc1nc2cccc([N+](=O)[O-])c2n1CC', 'TGI', '> 100 µM'),
  ('C=CCc1cccc2cc(C(=O)Nc3ccccc3)c(=N)oc12', 'TGI', '> 100 µM'),
  ('Cc1ccc(SSc2ccc(C)cc2C(=O)O)c(C(=O)O)c1', 'TGI', '> 100 µM'),
  ('Cc1cn(C2CC(O)C(COC(=O)NCCC(F)(F)C(F)(F)C(F)(F)C(F)(F)F)O2)c(=O)[nH]c1=O (stereo not given)', 'TGI', '> 100 µM'),
  ('Nc1nc(N)c2nc(CNc3ccc(C(=O)NC(CC(=O)O)C(=O)O)cc3)cnc2n1 (stereo not given)', 'TGI', '> 100 µM'),
  ('CCn1c(-c2ccc(N=NNc3ccc(-c4n[nH]c(=S)n4CC)cc3)cc2)n[nH]c1=S', 'TGI', '7.71 µM'),
  ('COc1cccc([C@H]2C/C(=N\NC(=O)C(=O)N[C@@H](C)c3ccccc3)c3ccccc3N2)c1', 'TGI', '> 100 µM'),
  ('CC(C)C1=CC23CCC4C(C)(C(=O)O)CCCC4(C)C2CC1C1C(=O)N(c2ccccc2N2C(=O)C4C5CC6C7(C)CCCC(C)(C(=O)O)C7CCC6(C=C5C(C)C)C4C2=O)C(=O)C13 (stereo not given)', 'TGI', '32.5 µM'),
  ('CCOC(=O)c1cc2c(n1Cc1cccc(OC)c1)-c1oncc1CCC2', 'TGI', '49.2 µM'),
  ('Cc1oc2c(C)c3oc(=O)cc(C)c3cc2c1CN1C(=O)C2OCCOCCOCCOCCOCCO[C@H]2C1=O (stereo not given in full)', 'TGI', '> 100 µM'),
  ('CC(=O)O[C@H]1C(=O)[C@@]2(C)[C@H]([C@H](OC(=O)c3ccccc3)[C@]3(O)C[C@H](OC(=O)[C@H](O)[C@@H](NC(=O)c4cccc(N=[N+]=[N-])c4)c4ccccc4)C(C)=C1C3(C)C)[C@]1(OC(C)=O)CO[C@@H]1C[C@@H]2O', 'TGI', '> 23.9 µM'),
  ('COc1ccc(C(=O)c2sc(Nc3ccc(Cl)cc3)nc2N)cc1', 'TGI', '> 63.5 µM'),
  ('S=C1N(/N=C/c2c3ccccc3cc3ccccc23)C(=Nc2ccccc2)C(=Nc2ccccc2)N1c1ccccc1', 'TGI', '> 100 µM'),
  ('CNc1ccc2c(c1)[C@@]1(C)c3ccccc3[C@@H](C2)N1C', 'TGI', '74.4 µM'),
  ('Cc1cc2c(cc1Cl)S(=O)(=O)OC(c1ccc([N+](=O)[O-])cc1)=N2', 'TGI', '> 100 µM'),
  ('O=C(c1cccs1)N(C(=S)OC12CC3CC(CC(C3)C1)C2)c1ccccc1', 'TGI', '> 100 µM'),
  ('O=C(C[n+]1ccc2ccccc2c1)c1ccc2ccc3ccccc3c2c1', 'TGI', '18.8 µM'),
  ('COc1ccc(CC(=O)N2CCC3(C)CC(=O)CC=C23)cc1OC (stereo not given)', 'TGI', '> 100 µM'),
  ('CC(=O)Oc1ccc(-c2cc3ccccc3oc2=O)cc1', 'TGI', '> 100 µM'),
  ('CC(=O)C(=Cc1ccc(C=C(C(C)=O)C(C)=O)cc1)C(C)=O', 'TGI', '5.87 µM'),
  ('N#C/C(c1nc2ccccc2[nH]1)=c1\s/c(=C/c2ccc(Cl)cc2)c(=O)n1-c1ccccc1', 'TGI', '> 100 µM'),
  ('CCOC(=O)c1nc2ccccc2nc1NCc1cc(OC)c(OC)c(OC)c1', 'TGI', '> 100 µM'),
  ('O=C(NC(=O)c1cn(CCN(CCO)C(=O)NCCCCCCNC(=O)N(CCO)CCn2cc(C(=O)NC(=O)OCc3ccccc3)c(=O)[nH]c2=O)c(=O)[nH]c1=O)OCc1ccccc1', 'TGI', '> 100 µM'),
  ('CC1CC[C@@]2(OC1)OC1C[C@H]3[C@@H]4CC=C5CC(OC6OC(CO)C(OC7OC(CO)C(O)C(OC8OCC(O)C(O)C8O)C7OC7OC(CO)C(O)C(O)C7O)C(O)C6O)CCC5(C)[C@H]4CCC3(C)C1[C@@H]2C (stereo not given in full)', 'TGI', '> 25 µM'),
  ('O=c1ccn(C2CC(O)C(CO)O2)c(=O)[nH]1 (stereo not given)', 'TGI', '> 5000 µM'),
  ('CCC(C)[C@H]1O[C@]2(C=C[C@@H]1C)C[C@@H]1C[C@@H](C/C=C(\C)[C@@H](OC3C[C@H](OC)C(O[C@H]4C[C@H](OC)[C@@H](O)[C@H](C)O4)[C@H](C)O3)[C@@H](C)/C=C/C=C3\CO[C@@H]4[C@H](O)C(C)=C[C@@H](C(=O)O1)[C@]34O)O2 (stereo not given in full)', 'TGI', '1.41 µM'),
  ('CCC1CN(C(=O)c2ccccc2)C(Cc2c[nH]c3ccccc23)C(=O)C1CC(=O)OC (stereo not given)', 'TGI', '> 100 µM'),
  ('COC(=O)c1ccccc1OCc1cc(=O)oc2ccc(C)cc12', 'TGI', '> 74.7 µM'),
  ('O=C(N/C(=C/c1ccc(Cl)cc1Cl)c1nc2ccccc2s1)c1ccccc1', 'TGI', '> 100 µM');
